molecules and their reported growth
system: E. coli TESEC Mtb Alr; assay: growth (OD600 after 10 h); higher = more growth (less inhibition); conditions: arabinose 1000 nM; compound 0.1 mM; raw OD600 reference: median of DMSO wells 0.294, cell-free background 0.041
Where a name gives a salt, the structure may show the parent alone.
observation-type: growth

- molecule: "CO/N=C(\\C(=O)N[C@@H]1C(=O)N2C(C(=O)O)=C(COC(N)=O)CS[C@H]12)c1ccco1 [Cefuroxime sodium salt]"
  assay-result: 0.0404
- molecule: "CC(Cc1cccc(C(F)(F)F)c1)NCCOC(=O)c1ccccc1 (centres undefined)"
  assay-result: 0.15
- molecule: "CCOC(=O)n1ccn(C)c1=S"
  assay-result: 0.297
- molecule: "CNCCCN1c2ccccc2CCc2ccccc21 [Desipramine hydrochloride]"
  assay-result: 0.228
- molecule: "CC(C)(C(=O)c1cccnc1)c1cccnc1"
  assay-result: 0.311
- molecule: "N=C(N)N1CCc2ccccc2C1 [Debrisoquin sulfate]"
  assay-result: 0.288
- molecule: "c1ccc2c(CC3=NCCN3)cccc2c1 [Naphazoline hydrochloride]"
  assay-result: 0.26
- molecule: "CNCCC(Oc1ccc(C(F)(F)F)cc1)c1ccccc1 (centres undefined) [Fluoxetine hydrochloride]"
  assay-result: 0.0669
- molecule: "COc1cc(C)c(/C=C/C(C)=C/C=C/C(C)=C/C(=O)O)c(C)c1C"
  assay-result: 0.276
- molecule: "C=C1/C(=C\\C=C2/CCC[C@]3(C)[C@@H]([C@H](C)/C=C/[C@@H](O)C4CC4)CC[C@@H]23)C[C@@H](O)C[C@@H]1O"
  assay-result: 0.0502
- molecule: "Cc1nc2ccccn2c(=O)c1CCN1CCC(C(=O)c2ccc(F)cc2)CC1"
  assay-result: 0.272
- molecule: "CC(C)Cc1ccc([C@H](C)C(=O)O)cc1 [S-(+)-ibuprofen]"
  assay-result: 0.269
- molecule: "COc1cc(N)c(Cl)cc1C(=O)NC1CCN(CCCOc2ccc(F)cc2)CC1OC (centres undefined) [Cisapride]"
  assay-result: 0.289
- molecule: "CC(Oc1ccccc1)C(=O)N[C@@H]1C(=O)N2[C@@H]1SC(C)(C)[C@@H]2C(=O)O (some centres undefined) [Phenethicillin potassium salt]"
  assay-result: 0.311
- molecule: "C[n+]1ccccc1/C=N/O [Pralidoxime chloride]"
  assay-result: 0.318
- molecule: "O=S(=O)(O)CCS"
  assay-result: 0.282
- molecule: "Cc1ccsc1/C=C/C1=NCCCN1C [Morantel tartrate]"
  assay-result: 0.306
- molecule: "CN(C)C(=N)NC(=N)N [Metformin hydrochloride]"
  assay-result: 0.281
- molecule: "Nc1nc(=S)c2ncn([C@@H]3O[C@H](CO)[C@@H](O)[C@H]3O)c2[nH]1"
  assay-result: 0.0503

All figures here come from the supplement of paper PMC9262897.
